Cited source for all entries: patent US20220112288A1

# target-of-assay: T1, human CD4 on cells (SKW3 cells; human PBMCs) (human, UniProt P01730 26-458)
# T1 construct: whole, on cells; SKW3 CD4 knockout cells served as the negative cell line in the primary screen; also called hCD4; huCD4
# procedure-text: FACS primary screen, hybridoma supernatant, SKW3 vs SKW3 CD4 KO cells;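 further: flow cytometry on mixed SKW3 and dye-labeled SKW3 CD4 knockout cells after 30 min at 4 °C with supernatant, ratio of binding signal on parental versus knockout cells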
Kindly supply the reported SKW3 WT vs KO ratio, anti-hKappa-FITC values for the records listed here.
In your answer, state the number alone without any accompanying words.

Entry 75110_08K12A (antibody, V domains shown, Tested as non-clonal AlivaMab Mouse Kappa hybridoma supernatant (detected with anti-mouse Fc gamma and anti-human kappa)) VH: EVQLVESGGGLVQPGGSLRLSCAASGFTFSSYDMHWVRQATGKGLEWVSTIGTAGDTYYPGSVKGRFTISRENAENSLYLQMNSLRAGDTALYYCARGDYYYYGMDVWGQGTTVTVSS VL: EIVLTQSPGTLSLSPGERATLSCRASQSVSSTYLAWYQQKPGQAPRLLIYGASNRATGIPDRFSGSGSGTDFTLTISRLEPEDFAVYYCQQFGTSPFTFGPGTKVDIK has what SKW3 WT vs KO ratio, anti-hKappa-FITC?
1.7

What about this binder? 75110_14N19A (antibody, V domains shown, Tested as non-clonal AlivaMab Mouse Kappa hybridoma supernatant (detected with anti-mouse Fc gamma and anti-human kappa)) VH: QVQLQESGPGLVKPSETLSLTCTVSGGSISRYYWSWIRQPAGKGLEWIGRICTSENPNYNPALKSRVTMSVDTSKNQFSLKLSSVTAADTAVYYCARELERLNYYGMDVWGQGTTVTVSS VL: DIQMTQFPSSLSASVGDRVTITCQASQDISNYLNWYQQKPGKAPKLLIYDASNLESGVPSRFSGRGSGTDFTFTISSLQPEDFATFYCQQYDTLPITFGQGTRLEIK
3.8

Proceed to 75110_14I16A (antibody, V domains shown, Tested as non-clonal AlivaMab Mouse Kappa hybridoma supernatant (detected with anti-mouse Fc gamma and anti-human kappa); also called 75110_14116A) VH: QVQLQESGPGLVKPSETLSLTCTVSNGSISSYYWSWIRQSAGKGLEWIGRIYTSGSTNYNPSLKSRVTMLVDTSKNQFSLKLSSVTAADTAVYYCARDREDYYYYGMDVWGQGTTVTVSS VL: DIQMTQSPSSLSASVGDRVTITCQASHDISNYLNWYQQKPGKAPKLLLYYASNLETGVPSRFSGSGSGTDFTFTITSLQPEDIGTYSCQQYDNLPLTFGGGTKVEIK
1.4

Item: 75110_08M20A (antibody, V domains shown, Tested as non-clonal AlivaMab Mouse Kappa hybridoma supernatant (detected with anti-mouse Fc gamma and anti-human kappa)) VH: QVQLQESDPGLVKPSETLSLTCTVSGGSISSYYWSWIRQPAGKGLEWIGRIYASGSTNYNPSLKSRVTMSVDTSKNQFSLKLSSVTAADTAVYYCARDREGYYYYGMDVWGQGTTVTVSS VL: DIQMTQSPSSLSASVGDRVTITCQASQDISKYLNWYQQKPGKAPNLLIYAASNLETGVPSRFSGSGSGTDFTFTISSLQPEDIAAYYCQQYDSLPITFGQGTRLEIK
2.7

Another binder: 75110_08D24A (antibody, V domains shown, Tested as non-clonal AlivaMab Mouse Kappa hybridoma supernatant (detected with anti-mouse Fc gamma and anti-human kappa)) VH: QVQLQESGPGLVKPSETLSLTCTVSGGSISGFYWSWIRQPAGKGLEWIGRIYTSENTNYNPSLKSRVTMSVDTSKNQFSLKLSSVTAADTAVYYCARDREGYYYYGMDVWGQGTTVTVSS VL: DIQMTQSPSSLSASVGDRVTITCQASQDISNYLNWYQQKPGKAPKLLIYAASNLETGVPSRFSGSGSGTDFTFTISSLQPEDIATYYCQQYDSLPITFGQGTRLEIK
1.1

What about this binder? 75110_06C16A (antibody, V domains shown, Tested as non-clonal AlivaMab Mouse Kappa hybridoma supernatant (detected with anti-mouse Fc gamma and anti-human kappa)) VH: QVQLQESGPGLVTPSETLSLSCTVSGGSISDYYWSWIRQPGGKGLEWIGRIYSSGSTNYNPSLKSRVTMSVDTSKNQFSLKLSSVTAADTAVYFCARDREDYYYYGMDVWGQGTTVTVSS VL: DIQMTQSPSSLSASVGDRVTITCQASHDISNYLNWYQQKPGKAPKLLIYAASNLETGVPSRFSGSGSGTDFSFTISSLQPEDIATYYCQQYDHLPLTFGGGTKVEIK
1.9

Request: 75110_14P08A (antibody, V domains shown, Tested as non-clonal AlivaMab Mouse Kappa hybridoma supernatant (detected with anti-mouse Fc gamma and anti-human kappa)) VH: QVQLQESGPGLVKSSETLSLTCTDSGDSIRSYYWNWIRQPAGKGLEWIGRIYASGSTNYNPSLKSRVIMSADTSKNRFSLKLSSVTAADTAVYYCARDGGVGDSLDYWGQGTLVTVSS VL: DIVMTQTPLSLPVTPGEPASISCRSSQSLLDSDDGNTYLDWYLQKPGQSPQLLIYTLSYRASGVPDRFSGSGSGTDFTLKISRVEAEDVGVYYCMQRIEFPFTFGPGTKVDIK
2.2

Lookup 75110_02N15A (antibody, V domains shown, Tested as non-clonal AlivaMab Mouse Kappa hybridoma supernatant (detected with anti-mouse Fc gamma and anti-human kappa)) VH: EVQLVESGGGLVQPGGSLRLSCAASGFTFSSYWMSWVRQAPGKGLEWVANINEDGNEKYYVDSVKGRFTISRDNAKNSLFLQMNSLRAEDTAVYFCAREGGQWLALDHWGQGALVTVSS VL: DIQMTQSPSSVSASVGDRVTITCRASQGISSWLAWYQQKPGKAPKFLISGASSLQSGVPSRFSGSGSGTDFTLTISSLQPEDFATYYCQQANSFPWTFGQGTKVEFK
2.1

Another binder to check: 75110_06E14A (antibody, V domains shown, Tested as non-clonal AlivaMab Mouse Kappa hybridoma supernatant (detected with anti-mouse Fc gamma and anti-human kappa)) VH: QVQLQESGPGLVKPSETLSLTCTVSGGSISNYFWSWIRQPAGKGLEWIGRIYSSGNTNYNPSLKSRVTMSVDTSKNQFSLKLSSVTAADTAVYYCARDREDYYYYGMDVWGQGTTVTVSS VL: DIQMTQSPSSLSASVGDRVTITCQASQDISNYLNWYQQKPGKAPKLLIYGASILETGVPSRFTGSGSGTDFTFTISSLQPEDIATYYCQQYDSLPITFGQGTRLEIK
3

Lookup 75110_07J02A (antibody, V domains shown, Tested as non-clonal AlivaMab Mouse Kappa hybridoma supernatant (detected with anti-mouse Fc gamma and anti-human kappa)) VH: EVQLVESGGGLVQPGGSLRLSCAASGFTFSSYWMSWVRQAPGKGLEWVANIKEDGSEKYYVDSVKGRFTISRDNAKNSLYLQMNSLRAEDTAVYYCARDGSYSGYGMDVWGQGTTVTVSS VL: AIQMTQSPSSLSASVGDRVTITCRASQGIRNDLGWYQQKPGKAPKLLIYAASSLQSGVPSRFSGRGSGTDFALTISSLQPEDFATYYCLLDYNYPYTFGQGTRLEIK
1.3

Next binder: 75110_06G04A (antibody, V domains shown, Tested as non-clonal AlivaMab Mouse Kappa hybridoma supernatant (detected with anti-mouse Fc gamma and anti-human kappa)) VH: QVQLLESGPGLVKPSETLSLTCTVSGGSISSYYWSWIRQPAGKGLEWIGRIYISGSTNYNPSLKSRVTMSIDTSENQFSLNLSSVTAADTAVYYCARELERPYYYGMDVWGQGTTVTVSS VL: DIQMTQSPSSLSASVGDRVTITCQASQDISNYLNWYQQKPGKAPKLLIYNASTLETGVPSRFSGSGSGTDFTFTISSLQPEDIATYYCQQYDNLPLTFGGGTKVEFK
3.3
